# Subject Of Test: PDGF-R (Homo sapiens, UniProt P09619)
# Sequence (P09619 33-1106, species assumed): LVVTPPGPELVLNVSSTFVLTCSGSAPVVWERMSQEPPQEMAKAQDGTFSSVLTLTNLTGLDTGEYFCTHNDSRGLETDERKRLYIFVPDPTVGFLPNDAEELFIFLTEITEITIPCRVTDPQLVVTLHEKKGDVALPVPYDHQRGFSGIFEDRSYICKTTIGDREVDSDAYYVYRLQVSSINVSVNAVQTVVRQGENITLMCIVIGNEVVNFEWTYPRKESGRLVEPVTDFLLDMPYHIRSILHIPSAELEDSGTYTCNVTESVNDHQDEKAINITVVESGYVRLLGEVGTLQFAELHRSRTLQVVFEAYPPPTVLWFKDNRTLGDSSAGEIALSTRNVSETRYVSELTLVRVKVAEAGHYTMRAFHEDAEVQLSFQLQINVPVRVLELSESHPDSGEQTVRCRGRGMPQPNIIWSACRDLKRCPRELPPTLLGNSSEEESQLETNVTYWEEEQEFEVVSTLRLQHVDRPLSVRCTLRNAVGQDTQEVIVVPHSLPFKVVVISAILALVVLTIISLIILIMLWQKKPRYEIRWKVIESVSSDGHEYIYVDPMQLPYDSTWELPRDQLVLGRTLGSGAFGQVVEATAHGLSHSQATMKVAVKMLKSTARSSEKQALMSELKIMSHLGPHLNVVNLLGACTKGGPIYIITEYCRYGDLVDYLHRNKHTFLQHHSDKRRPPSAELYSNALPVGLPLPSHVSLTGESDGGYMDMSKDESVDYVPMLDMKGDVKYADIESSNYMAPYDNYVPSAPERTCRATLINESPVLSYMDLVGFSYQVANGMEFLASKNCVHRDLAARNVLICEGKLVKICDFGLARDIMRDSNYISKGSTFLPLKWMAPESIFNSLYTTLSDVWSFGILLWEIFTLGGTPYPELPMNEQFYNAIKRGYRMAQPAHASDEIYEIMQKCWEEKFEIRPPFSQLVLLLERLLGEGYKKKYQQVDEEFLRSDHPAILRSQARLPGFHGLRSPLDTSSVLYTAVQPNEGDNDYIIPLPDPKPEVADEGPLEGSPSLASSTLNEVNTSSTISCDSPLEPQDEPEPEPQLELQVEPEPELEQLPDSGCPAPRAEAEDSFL
# Assay Text: PDGF-R ELISA
# Assay type: cell-based
Parameter Measured: PDGF Kinase %Inhibition (%)
Answers are plain numbers, in %.

Would you please look over these solved cases?
Compound | Subject Of Test | PDGF Kinase %Inhibition [%]
COc1c(C(C)(C)C)cc(C=C2C(=O)Nc3ccc(CCCl)cc32)cc1C(C)(C)C [10733/G04] | PDGF-R (Homo sapiens, UniProt P09619) | 11.9
O=C1Nc2ccc(S(=O)(=O)Nc3ccc(C(F)(F)F)cc3)cc2C1=Cc1c[nH]c(=O)[nH]c1=O [10731/E08] | PDGF-R (Homo sapiens, UniProt P09619) | 8.9
COC1CC(C=C2C(=O)Nc3ccc(CCCl)cc32)C(OC)O1 (stereo not drawn) [10730/G10] | PDGF-R (Homo sapiens, UniProt P09619) | 22.1

Hi, could you look up PDGF Kinase %Inhibition for each item in my list?
1. O=C1Nc2ccc(S(=O)(=O)N3CCOCC3)cc2C1=Cc1coc2ccccc2c1=O [10727/F07]
2. O=C1Nc2ccc(CCCl)cc2C1=Cc1cc2c(cc1Cl)OCO2 [10727/G06]
3. O=C1Nc2c(Br)cc(Br)cc2C1=Cc1ccc(Br)o1 [10726/A05]
4. O=C1Nc2ccc(S(=O)(=O)N3CCOCC3)cc2C1=Cc1coc2ccc([N+](=O)[O-])cc2c1=O [10731/F07]
5. O=C1Nc2ccc(I)cc2C1=Cc1cc(O)c(O)c(Br)c1 [10723/B04]
6. O=C1Nc2c(Br)cc(Br)cc2C1=Cc1c(F)cccc1C(F)(F)F [10728/A09]

1. 2.1
2. -12.5
3. 22.1
4. 1.3
5. 40.1
6. 10.3

Hi, could you look up PDGF Kinase %Inhibition for each item in my list?
1. O=C1Nc2ccc(CCCl)cc2C1=Cc1cc(O)c(O)c(Br)c1 [10723/G04]
2. O=C1Nc2ccc(S(=O)(=O)Nc3ccc(C(F)(F)F)cc3)cc2C1=Cc1ccccn1 [10729/E07]
3. COc1c(Cl)cc(C=C2C(=O)Nc3ccc(Br)c(C)c32)cc1C(C)(C)C [10732/C09]
4. Cc1cc(C=C2C(=O)Nc3ccc(S(=O)(=O)N4CCOCC4)cc32)cc(C(C)(C)C)c1O [10726/F04]
5. CNS(=O)(=O)c1ccc2c(c1)C(=Cc1cc(Cl)cc(Br)c1O)C(=O)N2 [10727/D04]
6. COc1cc(Br)cc(C=C2C(=O)Nc3c(Br)cc(Br)cc32)c1O [10733/A08]
7. Cc1c(Br)ccc2c1C(=Cc1cc(O)c3c(c1O)CCCC3)C(=O)N2 [10726/C07]
8. Cc1cc(C=C2C(=O)Nc3ccc(CCCl)cc32)cc(C(C)(C)C)c1O [10726/G04]

1. 21.4
2. 29.6
3. 15.4
4. 18.3
5. 6.4
6. -10.1
7. -67.7
8. 14.5

Quick one: PDGF Kinase %Inhibition for COc1cc(N(C)C)ccc1C=C1C(=O)Nc2c(Br)cc(Br)cc21 [10728/A05] ?
4.5

* * *

# Subject Of Test: UniProt:P09619
# Assay Text: PDGF-R ELISA
# Format: cell-based
Entry flag: Satisfied if PDGF Kinase %Inhibition reaches -10%; Not satisfied if it does not.

Past entries and their recorded results:
Molecule | Assigned Label
Cc1cc(C=C2C(=O)Nc3c(Br)cc(Br)cc32)cc(C)c1OCc1ccccc1 [10733/A07] | Not satisfied
COc1c(C(C)(C)C)cc(C=C2C(=O)Nc3c(Br)cc(Br)cc32)cc1C(C)(C)C [10733/A04] | Not satisfied
COc1ccc(C=C2C(=O)Nc3ccc(Br)c(C)c32)c(OC)c1OC [10730/C02] | Satisfied
CNS(=O)(=O)c1ccc2c(c1)C(=Cc1cc(C)c(OCc3ccccc3)c(C)c1)C(=O)N2 [10733/D07] | Satisfied
COc1ccc(C=C2C(=O)Nc3ccc(Br)c(C)c32)cc1 [10726/C11] | Satisfied
O=C1Nc2ccc(CCCl)cc2C1=Cc1ccc([N+](=O)[O-])cc1 [10734/G06] | Not satisfied
O=C1Nc2ccc(S(=O)(=O)Nc3ccc(C(F)(F)F)cc3)cc2C1=Cc1ccc(Br)o1 [10726/E05] | Satisfied
O=C1Nc2c(Br)cc(Br)cc2C1=Cc1ccccn1 [10729/A07] | Not satisfied

Let us examine a further case.
Determine whether measured PDGF Kinase %Inhibition meets or exceeds -10% for O=C1Nc2ccc(S(=O)(=O)N3CCOCC3)cc2C1=Cc1coc2ccc(Cl)cc2c1=O [10730/F06]
Satisfied

* * *

Hi there, I'd appreciate the recorded PDGF Kinase %Inhibition for every entry that follows.
# Subject Of Test: PDGF-R (Homo sapiens, UniProt P09619)
# Assay Text: PDGF-R ELISA
# Format: cell-based

Compound | PDGF Kinase %Inhibition
CC(C)(C)c1cc(C=C2C(=O)Nc3ccc(I)cc32)c(O)c(C(C)(C)C)c1 | 22.8%
CNS(=O)(=O)c1ccc2c(c1)C(=Cc1coc3ccccc3c1=O)C(=O)N2 | -14.7%
CCc1ccc(C=C2C(=O)Nc3c(Br)cc(Br)cc32)s1 | 8.1%
CNS(=O)(=O)c1ccc2c(c1)C(=Cc1cc(C)n[nH]1)C(=O)N2 | 10.7%
COC1CC(C=C2C(=O)Nc3c(Br)cc(Br)cc32)C(OC)O1 (centres unmarked) | 1.0%
CC(C)c1ccc2occ(C=C3C(=O)Nc4ccc(S(=O)(=O)Nc5ccc(C(F)(F)F)cc5)cc43)c(=O)c2c1 | 27.0%
CC(=O)Oc1ccc(C=C2C(=O)Nc3ccc(Br)c(C)c32)cc1OC(C)=O | 22.8%

Next up:
Quick one: PDGF Kinase %Inhibition for `O=C1Nc2ccccc2C1=C1C(=O)Nc2ccc(S(=O)(=O)Nc3ccc(C(F)(F)F)cc3)cc21` ?
34.7%

* * *

Hi there, I'd appreciate the recorded PDGF Kinase %Inhibition for every entry that follows.
# Subject Of Test: PDGF-R (Homo sapiens, UniProt P09619)
# Assay Text: PDGF-R ELISA
# Format: cell-based
Answers are plain numbers, in %.

Would you please look over these solved cases?
Compound | Parameter Measured | Measurement
O=C1Nc2ccc(S(=O)(=O)Nc3ccc(C(F)(F)F)cc3)cc2C1=Cc1cc(Br)ccc1O | PDGF Kinase %Inhibition | 35.8
CCc1cc(CC)c(C=C2C(=O)Nc3ccc(S(=O)(=O)N4CCOCC4)cc32)[nH]1 | PDGF Kinase %Inhibition | -3.7
COc1c([N+](=O)[O-])cc(C=C2C(=O)Nc3ccc(Br)c(C)c32)cc1C(C)(C)C | PDGF Kinase %Inhibition | 28.1
COc1cc(N(C)C)ccc1C=C1C(=O)Nc2ccc(CCCl)cc21 | PDGF Kinase %Inhibition | -4.4
O=C1Nc2ccc(CCCl)cc2C1=Cc1ccc(-c2ccccc2Cl)o1 | PDGF Kinase %Inhibition | 19.9

Hi, could you look up PDGF Kinase %Inhibition for each item in my list?
1. O=C1Nc2ccc(S(=O)(=O)Nc3ccc(C(F)(F)F)cc3)cc2C1=CC(c1cccs1)C(F)(F)F (centres unmarked)
2. COc1ccc(C=C2C(=O)Nc3ccc(CCCl)cc32)cc1

[4.8, -7.7]

Quick one: PDGF Kinase %Inhibition for `N#Cc1cccc(C=C2C(=O)Nc3c(Br)cc(Br)cc32)c1` ?
15.2

* * *

Hi there, I'd appreciate the recorded Met Kinase % Inhibition for every entry that follows.
# Tested on: MET
# Assay Text: MET biochemical kinase assay
# Parameters: species or system human; concentration or dose not given beside the values
Don't forget the unit after the number, please.

Molecule | Measurement
O=C1Nc2ccc(CCCl)cc2C1=Cc1c(Br)cnn1-c1ccc(Cl)cc1 | 27.7%
O=C1Nc2ccc(S(=O)(=O)Nc3ccc(C(F)(F)F)cc3)cc2C1=Cc1cc(O)ccc1O | 96.6%
O=C1Nc2ccc(S(=O)(=O)Nc3ccc(C(F)(F)F)cc3)cc2C1=Cc1ccc(N2CCOCC2)cc1 | 39.7%
COc1ccc(C=C2C(=O)Nc3ccc(CCCl)cc32)c2ccccc12 | 20.1%
CNS(=O)(=O)c1ccc2c(c1)C(=Cc1coc3ccc(C)cc3c1=O)C(=O)N2 | 59.7%
CC(=O)n1cc(C=C2C(=O)Nc3ccc(S(=O)(=O)Nc4ccc(C(F)(F)F)cc4)cc32)c2ccccc21 | 49.0%
O=C1Nc2c(Br)cc(Br)cc2C1=Cc1ccc(Br)s1 | 51.9%
Cc1c(Br)ccc2c1C(=Cc1cc(I)c(OCc3ccccc3)c(C(C)(C)C)c1)C(=O)N2 | 71.8%

Hi, could you look up Met Kinase % Inhibition for each item in my list?
1. CCOC(=O)c1[nH]c(C=C2C(=O)Nc3c(Br)cc(Br)cc32)c(C(=O)OC)c1C
2. O=C1Nc2c(Br)cc(Br)cc2C1=CC(c1cccs1)C(F)(F)F (stereo not drawn)
3. CNS(=O)(=O)c1ccc2c(c1)C(=Cc1ccc(C(=O)O)cc1)C(=O)N2
4. CNS(=O)(=O)c1ccc2c(c1)C(=Cc1cccnc1)C(=O)N2
5. O=C1Nc2ccc(S(=O)(=O)Nc3ccc(C(F)(F)F)cc3)cc2C1=Cc1c[nH]cn1
6. Cc1c(Br)ccc2c1C(=Cc1cc(C(C)(C)C)c(OCc3ccccc3)c(C(C)(C)C)c1)C(=O)N2
7. O=CN1CCN(c2ccc(C=C3C(=O)Nc4c(Br)cc(Br)cc43)cc2)CC1

["70.1%", "53.7%", "35.8%", "27.6%", "9.6%", "23.2%", "59.3%"]
